Entry source: paper PMC6009965

Target: α-glucosidase from Saccharomyces cerevisiae (Saccharomyces cerevisiae, UniProt P53341)
Construct: purchased Sigma-Aldrich Co. LLC (St. Louis, MO)
Sequence (P53341 whole entry): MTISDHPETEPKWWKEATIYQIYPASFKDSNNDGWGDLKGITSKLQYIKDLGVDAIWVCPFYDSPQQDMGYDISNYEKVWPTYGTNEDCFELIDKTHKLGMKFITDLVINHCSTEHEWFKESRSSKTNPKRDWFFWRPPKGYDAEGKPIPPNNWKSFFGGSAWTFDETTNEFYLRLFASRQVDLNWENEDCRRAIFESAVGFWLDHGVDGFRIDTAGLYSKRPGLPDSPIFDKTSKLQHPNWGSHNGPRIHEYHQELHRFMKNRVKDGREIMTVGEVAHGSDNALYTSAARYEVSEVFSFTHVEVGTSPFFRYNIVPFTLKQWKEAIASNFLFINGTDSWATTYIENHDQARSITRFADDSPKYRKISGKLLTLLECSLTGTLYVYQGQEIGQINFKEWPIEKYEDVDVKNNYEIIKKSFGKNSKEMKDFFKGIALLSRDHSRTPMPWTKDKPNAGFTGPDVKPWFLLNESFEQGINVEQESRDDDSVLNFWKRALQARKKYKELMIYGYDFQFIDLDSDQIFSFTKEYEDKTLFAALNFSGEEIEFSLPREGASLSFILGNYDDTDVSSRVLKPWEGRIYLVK
Experiment: biochemical
Conditions: enzyme 0.05 U/mL, pNPG 600 μM, pH 6.8, 37 °C; mean ± SEM; read-out: IC50
Experimental: Compounds A1, A2, A3, A4, A5, A6, B1, B2, B3, B4, C1, C2, C3, C4, C5, C6, C8, C9, D1 (chrysin), D2 (galangin) and D5 were obtained from Indofine Chemical Company, Inc. (Hillsborough, NJ). […] The α-glucosidase activity was measured using a method of Tadera et al.[31] slightly modified. […] The enzymatic reaction was monitored spectrophotometrically, in a microplate reader (Synergy HT, BIO-TEK), by measuring the absorbance at 405 nm. The obtained values correspond to the slope measured between 5 and 20 min. […]
For each of the compounds below, state its log10 IC50.
Heads up: the numbers are on a log10 scale; they represent IC50 in µM.

Value of log10 IC50 reported for the compound O=c1c(O)c(-c2ccc(O)cc2)oc2cc(O)ccc12 is 1.98

Value of log10 IC50 reported for the compound O=c1c(O)c(-c2ccc(O)c(O)c2)oc2c(O)c(O)ccc12 is 0.88

Value of log10 IC50 reported for the compound O=c1cc(-c2ccccc2)oc2cc(O)c(O)c(O)c12 is 1.64

Value of log10 IC50 reported for the compound O=c1c(O)c(-c2cccc(O)c2)oc2cc(O)ccc12 is 1.62

Value of log10 IC50 reported for the compound O=c1cc(-c2ccc(O)c(O)c2)oc2cc(O)cc(O)c12 is 1.66

Value of log10 IC50 reported for the compound O=c1c(O)c(-c2ccc(O)c(O)c2)oc2ccccc12 is 1.73

Value of log10 IC50 reported for the compound O=c1cc(-c2ccc(O)cc2)oc2cccc(O)c12 is 1.82

Value of log10 IC50 reported for the compound O=c1cc(-c2ccc(O)c(O)c2)oc2cc(O)ccc12 is 1.98

Value of log10 IC50 reported for the compound O=c1cc(-c2cccc(O)c2)oc2cc(O)ccc12 is 1.72
